Measured values drawn from patent US20230295310A1 for this set.

assay target: T1, human CD3e/g (human, UniProt P07766 23-126; P09693 23-116)
T1 construct: Bought soluble protein; also called hCD3e/g; human CD3e/g (Acro CDD-C52W4)
T1 sequence (P07766 23-126, chain 1 of 2): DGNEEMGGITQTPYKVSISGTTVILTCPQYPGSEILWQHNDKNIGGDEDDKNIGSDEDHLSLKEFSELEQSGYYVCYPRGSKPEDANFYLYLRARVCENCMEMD
T1 sequence (P09693 23-116, chain 2 of 2): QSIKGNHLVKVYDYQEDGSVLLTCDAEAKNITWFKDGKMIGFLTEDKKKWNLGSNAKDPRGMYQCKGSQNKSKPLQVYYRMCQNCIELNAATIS
experimental details: SPR (Carterra LSA), mAb on chip
metric name: pKd
pKd here: minus log base 10 of the concentration, concentration in moles per litre.

[[record]]
binder = "mAb 47 (antibody, V domains shown, VH and VL only) VH: QAQLVQSGSELKKPGASVKVSCKASGYTFTKHSMNWVRQAPGQGLEWMGWINTNTGNPTYAQGFTGRFVFSLDTSVTTAYLQISSLKAEDTAVYYCAREGDYDFWSGFFNFDYWGQGTLVTVSS VL: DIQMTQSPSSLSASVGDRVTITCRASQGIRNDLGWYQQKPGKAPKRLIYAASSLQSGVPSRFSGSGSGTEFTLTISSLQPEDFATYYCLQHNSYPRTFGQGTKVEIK"
experimental_result = 7.70


Now turn to the next binder.
Q: Form field: reported pKd of mAb 67 (antibody, V domains shown, VH and VL only) VH: EVQLVESGGDLVQPGRSLRLSCAASGFTFDDCVIHWVRQAPGKGLEWVSGITWNSGRIGYADSVKGRFTISRDNAKNSLYLQMNSLRVEDTALYYCAKEGNYDFWSTYYRGYFDLWGRGTLVTVSS VL: DIQMTQSPSSLSASVGDRVTITCRASQGIRNDLGWYQQKPGIAPKRLIYAASSLQGGVPLRFSGSGSGTEFTLTISSLQPEDFATYYCLQHNSYPYTFGQGTKLEIK
Result: 7.73
